- target under test: T1, human CD4 on the surface of SKW3 cells or human PBMCs (human, UniProt P01730 26-458)
- T1 construct: whole, on cells; SKW3 CD4 knockout cells served as the negative cell line; also called hCD4; SKW3 WT
- measurement protocol: FACS confirmation, supernatant on human PBMCs, anti-mouse Fc A647, CD4+ gate
test readout: PBMCs, anti-mFc 647 CD4+ gate - RL1 Binding
The answer should be a number; do not append a unit.

Below: 2 binders and their reported PBMCs, anti-mFc 647 CD4+ gate - RL1 Binding.
| binder | data value |
| --- | --- |
| 75110_12H19A (antibody, V domains shown, Tested here as non-clonal hybridoma supernatant from AlivaMab Mouse Kappa mice (detected with anti-mouse Fc and anti-human kappa)) VH: EVQLVESGGGLVQPGGSLRLSCAASGFTFSSYWMSWVRQAPGQGLEWVANINEDGNEKYHVDSVKGRLTISRDNAKNSLYLQMNSLRGVDTAVYFCAREGGQWLALDYWGQGALVTVSS VL: DIQMTQSPSSVSASVGDRVSITCRASQGISSWLAWYQQKPGKAPKLLIYGASGLQSGVPSRFSGSGSGTDFTLTISSLQPEDFATYYCQQANSFPWTFGQGTKVEIK | 244000 |
| 75110_01A06A (antibody, V domains shown, Tested here as non-clonal hybridoma supernatant from AlivaMab Mouse Kappa mice (detected with anti-mouse Fc and anti-human kappa)) VH: EVQLVESGGGLVQPGGSLRLSCAASGFTFSSYWMSWVRQAPGKGLEWVANINEDGNEKYYVDSVKGRLTISRDNAKNSLYLQMNSLRAEDTAVYFCAREGGQWLSLDYWGQGALVTVSS VL: DIQMTQSPSSVSASVGDRVSITCRASQGISSWLAWYQQKPGKAPKILIYGASSLQSGVPSRFSGSGSGTDFTLTISSLQPEDFATYYCQQANSFPWTFGQGTKVEIK | 321000 |

// next item, PBMCs, anti-mFc 647 CD4+ gate - RL1 Binding requested
Summary for this binder, 75110_09N20A (antibody, V domains shown, Tested here as non-clonal hybridoma supernatant from AlivaMab Mouse Kappa mice (detected with anti-mouse Fc and anti-human kappa)) VH: EVQLVESGGGLVQPGGSLRLSCAASGFTFSSYWMSWVRQAPGKGLEWVANINEDGSEKYYVDSVKGRFTISRDNAKNSLYLQMNSLRAEDTAVYYCVREGGQWLALDYWGQGTLVTVSS VL: DIQMTQSPSSVSASVGDRVTITCRASQGISSWLAWYQQKPGKAPKLLIYAASSLQSGVPSSFSGSGSGTDFTLTINSLQPEDFATYYCQQANSFPWTFGQGTKVAIK : PBMCs, anti-mFc 647 CD4+ gate - RL1 Binding is 287000
